target: Amine oxidase [flavin-containing] B (Homo sapiens, UniProt P27338); experiment: Inhibition of MAO-B (unknown origin) using benzylamine as substrate by spectrophotometric assay
QUANTITY_KIND: IC50 (nM)

                           compound_string  quantity_kind  unit_name  recorded_number
0  O=C(/C=C/c1cccc(F)c1)c1ccc(N2CCOCC2)cc1           IC50         nM               87

---

Target: UniProtKB P27338
Sequence (P27338 whole entry): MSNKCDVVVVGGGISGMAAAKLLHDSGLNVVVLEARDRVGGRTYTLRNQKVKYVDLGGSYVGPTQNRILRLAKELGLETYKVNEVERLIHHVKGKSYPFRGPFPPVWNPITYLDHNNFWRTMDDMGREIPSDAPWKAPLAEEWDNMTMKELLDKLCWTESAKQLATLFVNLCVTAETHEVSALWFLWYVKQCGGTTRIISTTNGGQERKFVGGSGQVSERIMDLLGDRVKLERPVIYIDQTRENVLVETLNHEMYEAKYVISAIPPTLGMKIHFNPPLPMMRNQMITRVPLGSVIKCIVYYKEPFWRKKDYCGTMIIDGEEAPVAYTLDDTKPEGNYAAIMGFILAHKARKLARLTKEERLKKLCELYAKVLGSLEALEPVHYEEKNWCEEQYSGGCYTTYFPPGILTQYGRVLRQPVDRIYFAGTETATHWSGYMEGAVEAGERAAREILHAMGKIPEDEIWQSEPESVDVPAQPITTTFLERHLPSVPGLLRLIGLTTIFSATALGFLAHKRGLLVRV
Test: Inhibition of recombinant human MAO-B using p-tyramine as substrate incubated for 15 mins followed by substrate addition and measured upto 20 mins by Amplex Red assay
pIC50: −log10 of the molar value.
Overview of reported pIC50 across a group of compounds:
QUANTITY_KIND: pIC50

>>> df
                                   compound  recorded_number
0  Cc1c(Cl)c(=O)oc2cc(OCCCCSC(=S)N3CCCCC3C)ccc12 (stereo not drawn)             8.05
1  Cc1c(Cl)c(=O)oc2cc(OCCCSC(=S)N3C(C)CCCC3C)ccc12 (stereo not drawn)             7.00
2  Cc1c(Cl)c(=O)oc2cc(OCCCCSC(=S)N3C(C)CCCC3C)ccc12 (stereo not drawn)             7.00

---

biological target: Amine oxidase [flavin-containing] B (Homo sapiens); assay: Inhibition of human MAO-B using tyramine hydrochloride as substrate preincubated for 30 mins followed by substrate addition and measured after 30 mins by fluorescence assay
QUANTITY_KIND: IC50 (nM)

In [3]: df
Out[3]:
                            compound_string  recorded_number
0  O=C(CSC(=S)N1CCN(c2ccc([N+](=O)[O-])cc2)CC1)N(Cc1ccc([N+](=O)[O-])cc1)c1ccc(F)cc1               97

---

target: Amine oxidase [flavin-containing] A (Homo sapiens, UniProt P21397); experiment: Inhibition of human MAO-A using p-tyramine as substrate preincubated for 15 mins followed by substrate addition and measured after 30 mins by Ample red assay
pIC50: −log10 of the molar value.
QUANTITY_KIND: pIC50

                            compound_string  quantity_kind  recorded_number
0  C#CCOc1ccc(-c2cc(-c3ccc(OCCN4CCOCC4)cc3)nc(N)n2)cc1          pIC50             7.74

---

Overview of reported IC50 across a group of molecules:
target: Amine oxidase [flavin-containing] A (Homo sapiens, UniProt P21397); assay: Inhibition of recombinant human MAO-A using kynuramine as substrate incubated for 10 mins followed by substrate addition and measured for 20 mins by Fluorescence microplate reader assay
QUANTITY_KIND: IC50

In [3]: df
Out[3]:
                                   molecule  quantity_kind   result
0  O=c1c(O)c(-c2cc(O)c(O)c(O)c2)oc2cc(O)cc(O)c12 [MYRICETIN]           IC50  9.93 µM
1  O=c1c(O)c(-c2ccc(O)c(O)c2)oc2cc(O)cc(O)c12 [QUERCETIN]           IC50  1.52 µM
2  CCOc1ccc([N+](=O)[O-])c(N/N=C/c2ccc(C(F)(F)F)cc2)n1           IC50  13.1 µM
3  COc1cc(-c2cc(=O)c3c(O)cc(O)cc3o2)cc(OC)c1O [TRICIN]           IC50  0.25 µM
4  CCOc1ccc([N+](=O)[O-])c(N/N=C/c2cccn2C)n1           IC50  6.12 µM
5  CCOc1ccc([N+](=O)[O-])c(N/N=C/c2ccccn2)n1           IC50  9.52 µM

---

target: Amine oxidase [flavin-containing] B (Rattus norvegicus, UniProt P19643); assay: Inhibition of rat brain mitochondria MAO-B using p-tyramine as substrate incubated for 15 mins followed by substrate addition and measured for 15 by microplate fluorescence reader analysis
Sequence (P19643 whole entry): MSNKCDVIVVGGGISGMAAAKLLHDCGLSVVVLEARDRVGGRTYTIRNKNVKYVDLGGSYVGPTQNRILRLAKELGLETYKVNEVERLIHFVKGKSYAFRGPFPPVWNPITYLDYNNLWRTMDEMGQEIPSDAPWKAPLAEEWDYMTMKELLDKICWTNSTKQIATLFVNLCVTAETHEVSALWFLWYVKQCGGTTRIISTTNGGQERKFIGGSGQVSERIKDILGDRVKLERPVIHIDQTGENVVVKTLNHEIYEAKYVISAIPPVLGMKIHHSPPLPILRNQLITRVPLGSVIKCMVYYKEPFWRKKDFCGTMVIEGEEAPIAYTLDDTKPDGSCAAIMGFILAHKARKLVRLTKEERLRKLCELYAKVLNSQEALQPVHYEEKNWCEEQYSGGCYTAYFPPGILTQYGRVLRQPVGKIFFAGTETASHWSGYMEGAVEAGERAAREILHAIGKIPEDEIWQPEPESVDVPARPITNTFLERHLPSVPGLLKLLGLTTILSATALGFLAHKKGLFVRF
pIC50: −log10 of the molar value.
QUANTITY_KIND: pIC50

In [3]: df
Out[3]:
                                   compound                               system_name  quantity_kind  recorded_number
0  C/C(=N\NC(=O)C1CC(c2ccccc2)=NO1)c1ccc(C)cc1 (configuration not stated)  Amine oxidase [flavin-containing] B (Rattus norvegicus, UniProt P19643)          pIC50             8.29
1  COc1ccc(/C(C)=N/NC(=O)C2CC(c3ccccc3)=NO2)cc1OC (configuration not stated)  Amine oxidase [flavin-containing] B (Rattus norvegicus, UniProt P19643)          pIC50             8.23

---

Biological target: Amine oxidase [flavin-containing] A (Homo sapiens, UniProt P21397)
Sequence (P21397 whole entry): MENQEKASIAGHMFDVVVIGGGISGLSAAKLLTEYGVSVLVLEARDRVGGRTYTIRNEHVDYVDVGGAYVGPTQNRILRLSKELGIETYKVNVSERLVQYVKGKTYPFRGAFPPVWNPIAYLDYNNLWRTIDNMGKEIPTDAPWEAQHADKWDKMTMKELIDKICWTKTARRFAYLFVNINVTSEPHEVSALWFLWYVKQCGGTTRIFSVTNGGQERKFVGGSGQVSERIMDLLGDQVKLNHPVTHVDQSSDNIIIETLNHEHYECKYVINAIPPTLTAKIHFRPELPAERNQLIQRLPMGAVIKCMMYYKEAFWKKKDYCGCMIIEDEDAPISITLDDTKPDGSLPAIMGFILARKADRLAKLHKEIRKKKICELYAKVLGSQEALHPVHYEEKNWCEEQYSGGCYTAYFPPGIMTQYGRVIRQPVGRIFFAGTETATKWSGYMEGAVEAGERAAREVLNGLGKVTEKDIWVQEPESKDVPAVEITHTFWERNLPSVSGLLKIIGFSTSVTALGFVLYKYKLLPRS
Assay: Mixed type inhibition of human MAO-A assessed as inhibition constant by Lineweaver-Burk plot analysis
QUANTITY_KIND: Ki (µM)

                       compound_string                               system_name  recorded_number
0  COc1cc(O)c2c(=O)oc3cc(O)cc(C)c3c2c1  Amine oxidase [flavin-containing] A (Homo sapiens, UniProt P21397)             0.34

---

Biological target: Amine oxidase [flavin-containing] B (Homo sapiens)
Sequence (P27338 whole entry): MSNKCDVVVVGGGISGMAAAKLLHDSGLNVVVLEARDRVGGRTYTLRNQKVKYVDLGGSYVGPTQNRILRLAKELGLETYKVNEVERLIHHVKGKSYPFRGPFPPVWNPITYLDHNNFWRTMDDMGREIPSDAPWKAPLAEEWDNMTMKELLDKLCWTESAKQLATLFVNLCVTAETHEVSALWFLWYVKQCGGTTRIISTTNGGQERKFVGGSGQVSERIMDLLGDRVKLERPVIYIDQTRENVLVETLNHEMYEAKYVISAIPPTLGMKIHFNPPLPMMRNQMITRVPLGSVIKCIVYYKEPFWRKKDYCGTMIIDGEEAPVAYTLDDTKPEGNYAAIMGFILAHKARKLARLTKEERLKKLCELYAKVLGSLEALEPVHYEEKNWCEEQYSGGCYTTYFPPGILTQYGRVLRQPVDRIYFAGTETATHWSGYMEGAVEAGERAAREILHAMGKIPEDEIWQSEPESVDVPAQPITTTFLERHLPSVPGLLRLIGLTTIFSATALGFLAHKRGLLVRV
Experiment: Inhibition of recombinant human MAO-B using p-tyramine as substrate incubated for 10 mins followed by substrate addition and measured 20 mins by fluorescence assay
pIC50: −log10 of the molar value.
QUANTITY_KIND: pIC50

                          compound_string  recorded_number
0  CN(C)c1ccc(/C=C/C(=O)c2cc(Cl)sc2Cl)cc1             7.40
